- test protocol: Solubility in media with different pH values
- Type: physicochemical
- condition parameters: phosphate buffer, 37 °C, pH 9, aqueous buffer, thermodynamic from solid, phosphate buffer, shaken 24 h, read-out: Solubility pH 9
- Description: The mixtures were shaken at 37° C. for 24 h and filtered through a 0.45 μm aqueous-phase filter membranes. The filtrates were collected for solubility determination by high performance liquid chromatography. pH 3, pH 4, pH5 and pH 6 represent acetate buffer solutions, and pH 7, pH 7.4, pH 8 and pH 9 represent phosphate buffer solutions.
Counter-ions that a name gives are not always drawn.
measured attribute: solubility at 24 h (µg/mL)

compound	measured attribute	observed value
CN(C)C(=O)N[C@H]1CC[C@H](CCN2CCN(c3cccc(Cl)c3Cl)CC2)CC1 [cariprazine hydrochloride, reference compound]	solubility at 24 h	0.35
